Provenance of the data: ChEMBL document CHEMBL1126741

Test system: Felis catus
procedure.text: Maximum decrease in sympathetic nerve discharge(SND) observed at 1 mg/kg dose in cat
Type: functional
Set-up: scale not given: the % may be the effect or the level left
I'd be grateful if you could share measured Control for these entries.
The answer is to be given in %; state only the numeric part.

## Task So what's the measured Control for this one? CCCN(CC1CC1)[C@@H]1CCc2ccc3[nH]c(C(N)=O)cc3c2C1
## Result 43

## Task So what's the measured Control for this one? CCCN(CCC)[C@@H]1CCc2ccc3[nH]c(C#N)cc3c2C1
## Result 0

## Task So what's the measured Control for this one? CCCN(CC1CC1)[C@H]1CCc2ccc3[nH]c(C(N)=O)cc3c2C1
## Result 14

* * *

I'd be grateful if you could share measured Temperature for these entries.
Test system: Mus musculus
procedure.text: Maximum obtainable hypothermic effect up to 30 mg/kg dose in mice expressed as temperature decrease in degree Centigrade
Type: functional
The answer is to be given in °C; state only the numeric part.

## Task So what's the measured Temperature for this one? CCCN[C@@H]1CCc2ccc3[nH]c(C(N)=O)cc3c2C1
## Result 2.4

## Task So what's the measured Temperature for this one? O=C1CC2(CCCC2)CC(=O)N1CCCCN1CCN(c2ncccn2)CC1
## Result 1.9

## Task So what's the measured Temperature for this one? CCCN(CCC)[C@H]1CCc2ccc3[nH]c(C(N)=O)cc3c2C1
## Result 2.2

## Task So what's the measured Temperature for this one? CCCN(CCCCN1C(=O)CC(C)(C)CC1=O)[C@@H]1CCc2ccc3[nH]c(C#N)cc3c2C1
## Result 6.8

## Task So what's the measured Temperature for this one? CCCN(CCCCN1C(=O)CC(C)(C)CC1=O)[C@H]1CCc2ccc3[nH]c(C#N)cc3c2C1
## Result 3.9

## Task So what's the measured Temperature for this one? CCCN(CC1CC1)[C@@H]1CCc2ccc3[nH]c(C(N)=O)cc3c2C1
## Result 4

## Task So what's the measured Temperature for this one? CCCN[C@H]1CCc2ccc3[nH]c(C(N)=O)cc3c2C1
## Result 1.8

## Task So what's the measured Temperature for this one? CCCN(CCC)[C@@H]1CCc2ccc3[nH]c(C(N)=O)cc3c2C1
## Result 3.3

## Task So what's the measured Temperature for this one? CCCN(CCC)[C@@H]1CCc2cccc(O)c2C1
## Result 4

## Task So what's the measured Temperature for this one? CCCN(CC1CC1)[C@H]1CCc2ccc3[nH]c(C(N)=O)cc3c2C1
## Result 3.3

## Task So what's the measured Temperature for this one? CCCN(CCCCN1C(=O)CC(C)(C)CC1=O)[C@H]1CCc2ccc3[nH]c(C(N)=O)cc3c2C1
## Result 2.2

## Task So what's the measured Temperature for this one? CCCN(CCC)[C@H]1CCc2ccc3[nH]c(C#N)cc3c2C1
## Result 6.3

## Task So what's the measured Temperature for this one? CCCN(CCC)[C@@H]1CCc2ccc3[nH]c(C#N)cc3c2C1
## Result 7.2

## Task So what's the measured Temperature for this one? CCCN(CCCCN1C(=O)CC(C)(C)CC1=O)[C@@H]1CCc2ccc3[nH]c(C(N)=O)cc3c2C1
## Result 2.8
